Values were extracted from the kinase profiling compilation of Christmann-Franck et al. (2016).

molecular target: MAP2K6 (human) (UniProt P52564); experiment: ELISA; details: compound 0.2 µM
Sequence (P52564 whole entry, looked up): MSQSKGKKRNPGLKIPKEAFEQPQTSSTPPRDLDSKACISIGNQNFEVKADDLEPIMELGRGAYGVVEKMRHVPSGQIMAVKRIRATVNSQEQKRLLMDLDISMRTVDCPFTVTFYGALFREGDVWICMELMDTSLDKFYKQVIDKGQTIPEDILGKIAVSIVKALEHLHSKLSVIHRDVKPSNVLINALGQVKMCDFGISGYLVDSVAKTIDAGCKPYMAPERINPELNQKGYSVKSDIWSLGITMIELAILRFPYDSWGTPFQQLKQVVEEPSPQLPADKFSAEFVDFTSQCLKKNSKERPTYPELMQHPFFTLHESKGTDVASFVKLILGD
Endpoint label: inhibition (%)

// known answers, use as guide
Record smiles	Target entity	Endpoint label	Readout number
CNC(=O)c1cc(Oc2ccc(NC(=O)Nc3ccc(Cl)c(C(F)(F)F)c3)cc2)ccn1	MAP2K6 (human) (UniProt P52564)	inhibition	64.2
CCN(CC)CCNC(=O)c1c(C)[nH]c(/C=C2\C(=O)Nc3ccc(F)cc32)c1C	MAP2K6 (human) (UniProt P52564)	inhibition	21.1

1. Cc1ccc(Nc2nccc(N(C)c3ccc4c(C)n(C)nc4c3)n2)cc1S(N)(=O)=O
2. COc1cc2c(Oc3ccc4[nH]c(C)cc4c3F)ncnc2cc1OCCCN1CCCC1
q: Of the pair 1 and 2 , name the member with the lesser recorded inhibition. Selection: enter the item's label.
a: 2

====

biological target: EEF2K (human) (UniProt O00418); assay: Caliper, Mobility shift assay off-chip; settings: compound 0.2 µM
Sequence (O00418 whole entry, looked up): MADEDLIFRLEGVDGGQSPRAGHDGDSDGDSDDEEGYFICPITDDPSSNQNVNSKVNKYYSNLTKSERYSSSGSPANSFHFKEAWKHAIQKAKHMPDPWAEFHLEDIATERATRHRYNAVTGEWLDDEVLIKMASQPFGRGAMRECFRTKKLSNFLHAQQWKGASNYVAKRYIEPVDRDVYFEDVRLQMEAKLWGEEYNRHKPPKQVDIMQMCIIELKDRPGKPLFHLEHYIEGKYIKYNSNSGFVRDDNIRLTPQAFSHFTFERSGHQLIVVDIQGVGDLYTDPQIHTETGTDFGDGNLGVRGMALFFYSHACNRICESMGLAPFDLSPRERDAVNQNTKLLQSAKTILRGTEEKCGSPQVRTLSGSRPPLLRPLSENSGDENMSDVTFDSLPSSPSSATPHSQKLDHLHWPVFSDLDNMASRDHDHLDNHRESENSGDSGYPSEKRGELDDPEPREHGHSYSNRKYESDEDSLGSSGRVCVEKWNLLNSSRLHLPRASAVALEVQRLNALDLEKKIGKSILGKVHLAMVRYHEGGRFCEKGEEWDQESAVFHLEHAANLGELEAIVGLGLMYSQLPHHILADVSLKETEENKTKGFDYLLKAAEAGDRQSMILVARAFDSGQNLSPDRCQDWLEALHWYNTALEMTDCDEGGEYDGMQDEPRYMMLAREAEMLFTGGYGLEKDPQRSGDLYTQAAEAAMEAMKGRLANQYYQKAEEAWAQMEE
Endpoint label: inhibition (%)

I. CCN(CC)CCNC(=O)c1c(C)[nH]c(/C=C2\C(=O)Nc3ccc(F)cc32)c1C
II. CNC(=O)c1cc(Oc2ccc(NC(=O)Nc3ccc(Cl)c(C(F)(F)F)c3)cc2)ccn1
III. Cc1ccc(Nc2nccc(N(C)c3ccc4c(C)n(C)nc4c3)n2)cc1S(N)(=O)=O
q: Rank by inhibition (largest to smallest). Order the labels as requested and give them as your answer.
a: III, I, II

====

molecular target: CSNK2A2 (human) (UniProt P19784); assay: Caliper, Mobility shift assay off-chip; conditions: compound 0.02 µM
Sequence (P19784 whole entry, looked up): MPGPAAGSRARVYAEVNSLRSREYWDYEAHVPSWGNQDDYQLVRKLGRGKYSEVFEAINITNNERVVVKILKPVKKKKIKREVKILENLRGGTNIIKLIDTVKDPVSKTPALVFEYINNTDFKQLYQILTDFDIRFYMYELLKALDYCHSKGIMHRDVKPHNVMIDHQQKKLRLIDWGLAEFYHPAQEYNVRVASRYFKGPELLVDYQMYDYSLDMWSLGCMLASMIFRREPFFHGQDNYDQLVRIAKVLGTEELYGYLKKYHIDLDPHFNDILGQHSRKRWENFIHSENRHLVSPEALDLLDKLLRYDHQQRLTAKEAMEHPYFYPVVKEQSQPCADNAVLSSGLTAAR
Endpoint label: inhibition (%)

Record smiles	Target entity	inhibition (%)
CNC(=O)c1cc(Oc2ccc(NC(=O)Nc3ccc(Cl)c(C(F)(F)F)c3)cc2)ccn1	CSNK2A2 (human) (UniProt P19784)	-3.5

I. CNC(=O)c1ccccc1Sc1ccc2c(/C=C/c3ccccn3)n[nH]c2c1
II. COc1cc2c(Oc3ccc4[nH]c(C)cc4c3F)ncnc2cc1OCCCN1CCCC1
III. Cc1ccc(Nc2nccc(N(C)c3ccc4c(C)n(C)nc4c3)n2)cc1S(N)(=O)=O
q: Please put the entries in order of rising inhibition. Order the labels as requested and give them as your answer.
a: I, III, II
(I: -5.6%, III: -2.8%, II: -0.7%)

====

molecular target: NUAK1 (human); test: Caliper, Mobility shift assay off-chip; settings: compound 0.2 µM
Endpoint label: inhibition (%)

Record smiles	Endpoint label	Measurement unit	Readout number
COc1cc2c(Oc3ccc4[nH]c(C)cc4c3F)ncnc2cc1OCCCN1CCCC1	inhibition	%	-13.6

I. Cc1ccc(Nc2nccc(N(C)c3ccc4c(C)n(C)nc4c3)n2)cc1S(N)(=O)=O
II. CNC(=O)c1cc(Oc2ccc(NC(=O)Nc3ccc(Cl)c(C(F)(F)F)c3)cc2)ccn1
III. CCN(CC)CCNC(=O)c1c(C)[nH]c(/C=C2\C(=O)Nc3ccc(F)cc32)c1C
q: Please put the entries in order of rising inhibition. Order the labels as requested and give them as your answer.
a: II, I, III

====

target: CDC42BPB (human) (UniProt Q9Y5S2); assay: Caliper, Mobility shift assay off-chip; settings: compound 0.2 µM
Sequence (Q9Y5S2 whole entry, looked up): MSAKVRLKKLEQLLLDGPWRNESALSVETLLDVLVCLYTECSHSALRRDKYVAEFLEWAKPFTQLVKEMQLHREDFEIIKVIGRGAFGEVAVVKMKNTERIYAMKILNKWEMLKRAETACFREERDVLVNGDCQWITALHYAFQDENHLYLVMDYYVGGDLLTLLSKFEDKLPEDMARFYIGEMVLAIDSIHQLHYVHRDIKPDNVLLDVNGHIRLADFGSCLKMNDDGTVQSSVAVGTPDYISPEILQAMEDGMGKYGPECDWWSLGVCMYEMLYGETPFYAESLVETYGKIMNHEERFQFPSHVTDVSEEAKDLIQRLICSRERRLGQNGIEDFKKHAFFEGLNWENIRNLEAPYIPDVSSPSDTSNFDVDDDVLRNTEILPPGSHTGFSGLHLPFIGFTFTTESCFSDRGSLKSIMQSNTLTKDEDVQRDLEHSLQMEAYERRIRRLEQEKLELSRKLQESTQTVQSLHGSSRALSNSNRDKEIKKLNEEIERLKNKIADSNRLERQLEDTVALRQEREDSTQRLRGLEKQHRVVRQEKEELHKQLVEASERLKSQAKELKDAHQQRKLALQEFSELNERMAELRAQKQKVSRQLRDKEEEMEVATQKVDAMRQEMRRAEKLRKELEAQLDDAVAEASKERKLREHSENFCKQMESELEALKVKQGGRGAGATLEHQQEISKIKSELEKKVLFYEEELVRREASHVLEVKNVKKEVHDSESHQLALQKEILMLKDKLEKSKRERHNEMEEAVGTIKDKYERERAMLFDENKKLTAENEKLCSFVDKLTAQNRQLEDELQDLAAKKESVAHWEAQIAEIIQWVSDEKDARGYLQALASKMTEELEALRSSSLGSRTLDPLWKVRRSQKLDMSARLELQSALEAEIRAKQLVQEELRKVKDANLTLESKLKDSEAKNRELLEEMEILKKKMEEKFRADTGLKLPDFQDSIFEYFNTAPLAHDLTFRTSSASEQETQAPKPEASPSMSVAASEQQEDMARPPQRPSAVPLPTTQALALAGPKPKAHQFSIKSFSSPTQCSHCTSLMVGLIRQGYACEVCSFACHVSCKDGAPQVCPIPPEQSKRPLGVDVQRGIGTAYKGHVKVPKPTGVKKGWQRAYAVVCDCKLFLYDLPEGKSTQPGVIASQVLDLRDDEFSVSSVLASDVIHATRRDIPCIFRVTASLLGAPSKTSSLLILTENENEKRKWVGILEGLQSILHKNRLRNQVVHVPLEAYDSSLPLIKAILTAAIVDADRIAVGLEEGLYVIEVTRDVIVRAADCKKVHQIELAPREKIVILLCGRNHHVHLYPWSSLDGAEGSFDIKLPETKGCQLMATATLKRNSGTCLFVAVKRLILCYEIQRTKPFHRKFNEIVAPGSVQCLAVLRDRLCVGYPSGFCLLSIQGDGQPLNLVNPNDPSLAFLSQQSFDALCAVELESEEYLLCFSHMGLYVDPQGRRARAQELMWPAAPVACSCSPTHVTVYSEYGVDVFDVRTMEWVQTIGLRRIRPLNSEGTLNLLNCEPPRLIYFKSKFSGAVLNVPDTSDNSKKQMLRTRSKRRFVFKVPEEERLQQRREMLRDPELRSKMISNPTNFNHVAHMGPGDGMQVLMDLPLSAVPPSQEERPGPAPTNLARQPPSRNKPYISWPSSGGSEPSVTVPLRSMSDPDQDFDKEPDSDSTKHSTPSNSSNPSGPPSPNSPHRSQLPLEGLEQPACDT
Endpoint label: inhibition (%)

Record smiles	inhibition [%]
CCN(CC)CCNC(=O)c1c(C)[nH]c(/C=C2\C(=O)Nc3ccc(F)cc32)c1C	-0.5

P. COc1cc2c(Oc3ccc4[nH]c(C)cc4c3F)ncnc2cc1OCCCN1CCCC1
Q. Cc1ccc(Nc2nccc(N(C)c3ccc4c(C)n(C)nc4c3)n2)cc1S(N)(=O)=O
R. CNC(=O)c1cc(Oc2ccc(NC(=O)Nc3ccc(Cl)c(C(F)(F)F)c3)cc2)ccn1
q: Please put the entries in order of rising inhibition. Order the labels as requested and give them as your answer.
a: R, Q, P

====

target: ALK (human); test: Caliper, Mobility shift assay off-chip; settings: compound 0.02 µM
Endpoint label: inhibition (%)

// known answers, use as guide
Record smiles	Endpoint label	Readout number
Cc1ccc(Nc2nccc(N(C)c3ccc4c(C)n(C)nc4c3)n2)cc1S(N)(=O)=O	inhibition	10.1
CNC(=O)c1cc(Oc2ccc(NC(=O)Nc3ccc(Cl)c(C(F)(F)F)c3)cc2)ccn1	inhibition	-3.3

a. CNC(=O)c1ccccc1Sc1ccc2c(/C=C/c3ccccn3)n[nH]c2c1
b. COc1cc2c(Oc3ccc4[nH]c(C)cc4c3F)ncnc2cc1OCCCN1CCCC1
q: Of the pair a and b , name the member with the lesser recorded inhibition. Selection: enter the item's label.
a: a
(a: 1.4%, b: 5.8%)

====

target: UniProt:Q9P1W9; test: Caliper, Mobility shift assay off-chip; conditions: compound 0.2 µM
Sequence (Q9P1W9 whole entry, looked up): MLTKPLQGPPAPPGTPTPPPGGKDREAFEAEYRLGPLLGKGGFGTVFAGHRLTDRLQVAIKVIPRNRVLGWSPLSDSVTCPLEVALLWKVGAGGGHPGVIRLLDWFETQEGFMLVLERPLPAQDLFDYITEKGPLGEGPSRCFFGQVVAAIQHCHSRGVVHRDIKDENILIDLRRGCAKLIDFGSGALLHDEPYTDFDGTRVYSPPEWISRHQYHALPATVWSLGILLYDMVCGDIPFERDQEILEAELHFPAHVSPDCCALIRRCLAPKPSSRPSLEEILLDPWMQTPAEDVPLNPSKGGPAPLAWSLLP
Endpoint label: inhibition (%)

Record smiles	Measurement unit	inhibition
COc1cc2c(Oc3ccc4[nH]c(C)cc4c3F)ncnc2cc1OCCCN1CCCC1	%	8.8

1. Cc1ccc(Nc2nccc(N(C)c3ccc4c(C)n(C)nc4c3)n2)cc1S(N)(=O)=O
2. CNC(=O)c1cc(Oc2ccc(NC(=O)Nc3ccc(Cl)c(C(F)(F)F)c3)cc2)ccn1
3. CCN(CC)CCNC(=O)c1c(C)[nH]c(/C=C2\C(=O)Nc3ccc(F)cc32)c1C
q: Please put the entries in order of rising inhibition. Order the labels as requested and give them as your answer.
a: 2, 3, 1
(2: 1.2%, 3: 2.5%, 1: 6.8%)

====

target: UniProt Q9NQU5; experiment: Caliper, Mobility shift assay off-chip; conditions: compound 0.02 µM
Sequence (Q9NQU5 whole entry, looked up): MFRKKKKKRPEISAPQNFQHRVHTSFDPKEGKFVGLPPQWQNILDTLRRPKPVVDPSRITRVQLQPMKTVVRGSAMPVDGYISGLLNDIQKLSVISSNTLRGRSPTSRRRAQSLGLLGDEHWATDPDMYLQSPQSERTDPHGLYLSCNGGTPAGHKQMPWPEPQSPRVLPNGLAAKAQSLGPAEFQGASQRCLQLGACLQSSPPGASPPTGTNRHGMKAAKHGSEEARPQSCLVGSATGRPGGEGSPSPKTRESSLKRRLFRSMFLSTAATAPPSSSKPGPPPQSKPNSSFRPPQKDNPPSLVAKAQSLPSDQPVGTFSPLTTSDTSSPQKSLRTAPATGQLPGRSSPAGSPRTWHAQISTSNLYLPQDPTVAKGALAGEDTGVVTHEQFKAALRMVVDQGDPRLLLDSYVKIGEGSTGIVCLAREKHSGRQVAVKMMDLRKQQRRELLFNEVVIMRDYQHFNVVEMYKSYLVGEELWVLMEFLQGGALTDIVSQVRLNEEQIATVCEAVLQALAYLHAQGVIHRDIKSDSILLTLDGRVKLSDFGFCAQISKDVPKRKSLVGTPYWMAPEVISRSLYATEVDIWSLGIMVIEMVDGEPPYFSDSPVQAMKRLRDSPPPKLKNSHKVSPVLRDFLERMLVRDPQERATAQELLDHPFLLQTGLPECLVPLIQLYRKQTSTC
Endpoint label: inhibition (%)

// known answers, use as guide
Record smiles	Endpoint label	Readout number
Cc1ccc(Nc2nccc(N(C)c3ccc4c(C)n(C)nc4c3)n2)cc1S(N)(=O)=O	inhibition	-5.8
COc1cc2c(Oc3ccc4[nH]c(C)cc4c3F)ncnc2cc1OCCCN1CCCC1	inhibition	-2.2

P. CNC(=O)c1ccccc1Sc1ccc2c(/C=C/c3ccccn3)n[nH]c2c1
Q. CNC(=O)c1cc(Oc2ccc(NC(=O)Nc3ccc(Cl)c(C(F)(F)F)c3)cc2)ccn1
q: Of the pair P and Q , name the member with the lesser recorded inhibition. Selection: enter the item's label.
a: Q
(Q: -6.6%, P: 0.1%)

====

target: JAK2 JH1 JH2 (human); assay: Caliper, Mobility shift assay off-chip; settings: compound 0.02 µM
Endpoint label: inhibition (%)

I. CNC(=O)c1cc(Oc2ccc(NC(=O)Nc3ccc(Cl)c(C(F)(F)F)c3)cc2)ccn1
II. COc1cc2c(Oc3ccc4[nH]c(C)cc4c3F)ncnc2cc1OCCCN1CCCC1
q: Of the pair I and II , name the member with the lesser recorded inhibition. Selection: enter the item's label.
a: I

====

biological target: UniProt P11309; assay: Caliper, Mobility shift assay off-chip; settings: compound 0.02 µM
Sequence (P11309 whole entry, looked up): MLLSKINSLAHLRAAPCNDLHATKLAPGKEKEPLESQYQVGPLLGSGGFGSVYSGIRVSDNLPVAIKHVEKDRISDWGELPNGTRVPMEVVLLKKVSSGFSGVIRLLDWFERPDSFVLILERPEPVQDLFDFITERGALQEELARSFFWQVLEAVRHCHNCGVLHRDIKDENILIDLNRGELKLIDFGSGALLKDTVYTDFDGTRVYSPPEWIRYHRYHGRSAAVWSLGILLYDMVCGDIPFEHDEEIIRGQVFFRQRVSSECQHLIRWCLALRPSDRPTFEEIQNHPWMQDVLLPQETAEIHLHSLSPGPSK
Endpoint label: inhibition (%)

// known answers, use as guide
Record smiles	Target entity	inhibition, %
CNC(=O)c1cc(Oc2ccc(NC(=O)Nc3ccc(Cl)c(C(F)(F)F)c3)cc2)ccn1	UniProt P11309	1
CNC(=O)c1ccccc1Sc1ccc2c(/C=C/c3ccccn3)n[nH]c2c1	UniProt P11309	-3.4

A. COc1cc2c(Oc3ccc4[nH]c(C)cc4c3F)ncnc2cc1OCCCN1CCCC1
B. Cc1ccc(Nc2nccc(N(C)c3ccc4c(C)n(C)nc4c3)n2)cc1S(N)(=O)=O
q: Sorting by inhibition in descending order, would A or B appear first? Selection: enter the item's label.
a: A

====

molecular target: CDK7 (human) (UniProt P50613); assay: Caliper, Mobility shift assay off-chip; conditions: compound 0.02 µM
Sequence (P50613 whole entry, looked up): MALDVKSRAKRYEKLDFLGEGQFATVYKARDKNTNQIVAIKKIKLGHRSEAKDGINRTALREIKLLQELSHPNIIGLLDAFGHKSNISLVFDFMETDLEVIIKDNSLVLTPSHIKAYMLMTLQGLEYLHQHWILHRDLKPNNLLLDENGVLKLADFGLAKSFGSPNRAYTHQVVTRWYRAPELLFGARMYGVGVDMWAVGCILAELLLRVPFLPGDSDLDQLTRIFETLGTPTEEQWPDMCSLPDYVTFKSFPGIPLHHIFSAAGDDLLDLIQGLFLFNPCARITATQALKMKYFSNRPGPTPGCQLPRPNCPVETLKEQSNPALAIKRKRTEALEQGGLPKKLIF
Endpoint label: inhibition (%)

Record smiles	Endpoint label	Readout number
CNC(=O)c1cc(Oc2ccc(NC(=O)Nc3ccc(Cl)c(C(F)(F)F)c3)cc2)ccn1	inhibition	-5.5

I. Cc1ccc(Nc2nccc(N(C)c3ccc4c(C)n(C)nc4c3)n2)cc1S(N)(=O)=O
II. COc1cc2c(Oc3ccc4[nH]c(C)cc4c3F)ncnc2cc1OCCCN1CCCC1
III. CNC(=O)c1ccccc1Sc1ccc2c(/C=C/c3ccccn3)n[nH]c2c1
q: # sort list by recorded inhibition, greatest to least Order the labels as requested and give them as your answer.
a: I, III, II
(I: -1.6%, III: -3.4%, II: -5.4%)

====

target: PRKCQ (human) (UniProt Q04759); experiment: Caliper, Mobility shift assay off-chip; settings: compound 0.2 µM
Endpoint label: inhibition (%)

// known answers, use as guide
Record smiles	Endpoint label	Readout number
Cc1ccc(Nc2nccc(N(C)c3ccc4c(C)n(C)nc4c3)n2)cc1S(N)(=O)=O	inhibition	0.5
CCN(CC)CCNC(=O)c1c(C)[nH]c(/C=C2\C(=O)Nc3ccc(F)cc32)c1C	inhibition	1.3

I. COc1cc2c(Oc3ccc4[nH]c(C)cc4c3F)ncnc2cc1OCCCN1CCCC1
II. CNC(=O)c1cc(Oc2ccc(NC(=O)Nc3ccc(Cl)c(C(F)(F)F)c3)cc2)ccn1
q: Sorting by inhibition in descending order, would I or II appear first? Selection: enter the item's label.
a: II
